# system under test: Serine/threonine-protein kinase B-raf (Homo sapiens, UniProt P15056, V600E)
# Sequence (P15056 2-766 V600E limits assumed): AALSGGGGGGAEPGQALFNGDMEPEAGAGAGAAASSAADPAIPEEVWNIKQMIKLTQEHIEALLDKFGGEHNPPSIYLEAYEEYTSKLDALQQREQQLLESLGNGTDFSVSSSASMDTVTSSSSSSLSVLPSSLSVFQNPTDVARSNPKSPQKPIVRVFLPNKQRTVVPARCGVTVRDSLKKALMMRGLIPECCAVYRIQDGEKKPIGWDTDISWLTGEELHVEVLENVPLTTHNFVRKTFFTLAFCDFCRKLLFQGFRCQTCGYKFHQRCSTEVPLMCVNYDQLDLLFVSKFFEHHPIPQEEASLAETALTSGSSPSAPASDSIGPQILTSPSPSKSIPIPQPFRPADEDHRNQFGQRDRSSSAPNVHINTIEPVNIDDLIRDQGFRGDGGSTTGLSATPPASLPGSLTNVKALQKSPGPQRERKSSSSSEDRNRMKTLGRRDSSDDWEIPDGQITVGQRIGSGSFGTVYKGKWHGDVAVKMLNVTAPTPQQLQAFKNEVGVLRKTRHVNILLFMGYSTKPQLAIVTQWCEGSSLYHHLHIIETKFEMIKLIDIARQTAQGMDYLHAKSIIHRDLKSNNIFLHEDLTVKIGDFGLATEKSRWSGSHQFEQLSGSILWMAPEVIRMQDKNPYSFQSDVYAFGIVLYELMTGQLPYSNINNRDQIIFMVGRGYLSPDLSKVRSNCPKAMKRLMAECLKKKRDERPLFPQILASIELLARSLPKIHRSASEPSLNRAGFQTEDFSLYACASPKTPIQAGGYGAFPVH
# measurement description: Inhibition of BRAF V600E mutant
readout type: IC50 (nM)

Solved entries:
1) Cn1c(=O)[nH]c2nccc(Oc3ccc(NC(=O)c4cccc(OC(F)(F)F)c4)c4ccccc34)c21 : 5200
2) CSc1cc(Oc2ccnc3[nH]c(=O)[nH]c23)ccc1NC(=O)Nc1cccc(C(F)(F)F)c1 : 1
3) O=C(Nc1cccc(F)c1)Nc1ccc(Oc2ccnc3[nH]c(=O)[nH]c23)c2ccccc12 : 37
4) Cn1c(=O)[nH]c2c(Oc3ccc(NC(=O)Nc4cccc(C(C)(C)C)c4)c4ccccc34)ccnc21 : 430
5) Cc1cc(Oc2ccnc3[nH]c(=O)[nH]c23)ccc1NC(=O)Nc1ccc(Cl)c(C(F)(F)F)c1 : 37
6) O=C(Nc1cccc(C(F)(F)F)c1)Nc1ccc(Oc2ccnc3[nH]c(=O)[nH]c23)c2ccccc12 : 6
7) CN(C)c1cc(Oc2ccnc3[nH]c(=O)[nH]c23)ccc1NC(=O)Nc1ccc(Cl)c(C(F)(F)F)c1 : 10000
8) O=C(Nc1cc(C(F)(F)F)ccc1N1CCOCC1)Nc1ccc(Oc2ccnc3[nH]c(=O)[nH]c23)c2ccccc12 : 14
9) O=C(Nc1ccc(Cl)c(C(F)(F)F)c1)Nc1ccc(Oc2ccnc3[nH]c(=O)[nH]c23)cc1C(F)(F)F : 22
10) CSc1cc(Oc2ccnc3[nH]c(=O)[nH]c23)ccc1NC(=O)Nc1ccc(Cl)c(C(F)(F)F)c1 : 1

A. O=C(Nc1cc(C(F)(F)F)ccc1F)Nc1ccc(Oc2ccnc3[nH]c(=O)[nH]c23)c2ccccc12
B. O=C(Nc1cccc(SC(F)(F)F)c1)Nc1ccc(Oc2ccnc3[nH]c(=O)[nH]c23)cc1F
C. Cn1c(=O)[nH]c2nccc(Oc3ccc(NC(=O)Nc4ccc(Cl)c(C(F)(F)F)c4)c4ccccc34)c21
Hey, quick one: sort these by IC50, low to high? // format: requested-order list of labels B, C, A
(B: 7 nM, C: 23 nM, A: 37 nM)

a. O=C(Nc1ccc(Oc2ccnc3[nH]c(=O)[nH]c23)cc1F)Nc1cc(C(F)(F)F)ccc1F
b. CS(=O)(=O)c1cc(Oc2ccnc3[nH]c(=O)[nH]c23)ccc1NC(=O)Nc1ccc(Cl)c(C(F)(F)F)c1
Param metric = IC50; output whichever of a , b has the minimum value. Mark your selection by writing its label. a
(a: 7 nM, b: 90 nM)
